tested on: AMPA-R; test: [3H]AMPA radioligand binding assay on rat brain synaptic membranes; details: Experiment #3, 10 uM
This section presents sequences with their documented % Inhibition @ 10 uM values.
MEASURED QUANTITY: % Inhibition @ 10 uM (%)

INSERT INTO measurements (record_sequence, measured_quantity, recorded_result) VALUES
  ('ASCSAMAFUFGFCMASCS [RG5124, reference compound]', '% Inhibition @ 10 uM', 16.1),
  ('ASCSTGSUSAASGSCMAFCFUFUMUSCS (ACTGUAAGCACUUUC; cEt at 1, 2, 4, 5, 7, 8, 14, 15, 2''-O-methyl at 9, 13, 2''-fluoro at 10, 11, 12, other sugars and backbone not given here) [RG-NG-1019]', '% Inhibition @ 10 uM', 15.6),
  ('AFGSCMAFCFUFUMUSGE [RG-NG-1023]', '% Inhibition @ 10 uM', 75.2),
  ('ASGSCMAFCFUFUMUSGS [RGLS4326, reference compound]', '% Inhibition @ 10 uM', 89),
  ('ASGSCMAFCFUFUMTEGE [RG-NG-1024]', '% Inhibition @ 10 uM', 6.5),
  ('TEGSTEAASGSCMAFCFUFUMUSCS (TGTAAGCACUUUC; anti-miR; 2''-MOE at 1, 3, cEt at 2, 5, 6, 12, 13, 2''-O-methyl at 7, 11, 2''-fluoro at 8, 9, 10, other sugars and backbone not given here) [RG-NG-1020]', '% Inhibition @ 10 uM', '−23.3'),
  ('TEAASGSCMAFCFUFUMUSCS (TAAGCACUUUC; 2''-MOE at 1, cEt at 3, 4, 10, 11, 2''-O-methyl at 5, 9, 2''-fluoro at 6, 7, 8, other sugars and backbone not given here) [RG-NG-1021]', '% Inhibition @ 10 uM', '−11.5'),
  ('ASGSCMAFCFUFUMUSGE [RG-NG-1025]', '% Inhibition @ 10 uM', 84.1),
  ('ASGSCSASCSUSUSUSGS [RG-NG-1001]', '% Inhibition @ 10 uM', 94.6);

---

target: AMPA glutamate receptor; assay: Patch clamp activity (RGLS4326, off-target follow-up); format: cell-based; conditions: read-out: functional IC50 based on patch clamp activity
pIC50: −log10 of the molar value.
MEASURED QUANTITY: pIC50

INSERT INTO results (record_sequence, measured_quantity, recorded_result) VALUES
  ('ASGSCMAFCFUFUMUSGS [RGLS4326, reference compound]', 'pIC50', '6.22 to 6.52');

---

tested on: AMPA-R; assay: [3H]AMPA radioligand binding assay on rat brain synaptic membranes; details: Experiment #1, 100 uM;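 also: competition binding in which test compounds at rising concentrations displace [3H]AMPA from AMPA-R on rat brain synaptic membranes, with reduced bound radioligand as read-out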
List of % Inhibition @ 100 uM values.
MEASURED QUANTITY: % Inhibition @ 100 uM (%)

INSERT INTO results (record_sequence, measured_quantity, recorded_result) VALUES
  ('ASGSCSASCSUSUSUS [RG-NG-1002]', '% Inhibition @ 100 uM', 24.0),
  ('USASAMGCSASCSUMUMUSGS (antisense UAAGCACUUUG; cEt at 1, 2, 5, 6, 7, 10, 11, 2''-O-methyl at 3, 8, 9, other sugars and backbone not given here) [RG-NG-1005]', '% Inhibition @ 100 uM', 28.3),
  ('ASGSCMAFCFUFUMUSGS [RGLS4326, reference compound]', '% Inhibition @ 100 uM', 104.1),
  ('ASGSCSASCSUSUSUSGS [RG-NG-1001]', '% Inhibition @ 100 uM', 91.3);
